Data provenance is patent US20240043542A1.

Parameter: pKd. Scope: all listed entries.
Target: T1, cynomolgus monkey B7-H4 (recombinant, BLI) (cynomolgus monkey, UniProt Q7Z7D3 25-259 (human entry))
T1 construct: also called Cynomolgus B7-H4
T1 sequence: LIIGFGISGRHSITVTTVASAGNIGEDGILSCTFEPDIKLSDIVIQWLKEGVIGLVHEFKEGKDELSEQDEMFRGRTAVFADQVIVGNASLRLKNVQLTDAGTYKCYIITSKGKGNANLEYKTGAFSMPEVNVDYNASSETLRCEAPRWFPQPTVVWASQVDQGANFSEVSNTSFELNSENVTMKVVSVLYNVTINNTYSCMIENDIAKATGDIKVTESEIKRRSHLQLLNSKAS
Experiment: BLI, antigen on Protein A tips;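 further: Anti-B7-H4 antibodies assessed for affinity toward the B7-H4 extracellular domain using biolayer interferometry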
# reply with the number alone; pKd is -log10 of concentration in mol/L

Look over these answered cases.
B7-H4 antibody 15495 (antibody, human IgG1, kappa, V domains shown, human IgG1/kappa) VH: QVQLVQSGAEVKKPGSSVKVSCKASGGTFSSYAISWVRQAPGQGLEWMGGIIPIFGTASYAQKFQGRVTITADESTSTAYMELSSLRSEDTAVYYCARQQYDGRRYFGLWGRGTLVTVSS VL: EIVMTQSPATLSVSPGERATLSCRASQSVSSNLAWYQQKPGQAPRLLIYSASTRATGIPARFSGSGSGTEFTLTISSLQSEDFAVYYCQQVNVWPPTFGGGTKVEIKR: 8.29
B7-H4 antibody 20496 (antibody, human IgG1, kappa, V domains shown, human IgG1/kappa) VH: QLQLQESGPGLVKPSETLSLTCTVSGGSISSSVYYWSWIRQPPGKGLEWIGSILVSGSTYYNPSLKSRVTISVDTSKNQFSLKLSSVTAADTAVYYCARAVSFLDVWGQGTMVIVSS VL: DIQMTQSPSSLSASVGDRVTITCRASQSISSYLNWYQQKPGKAPKLLIYGASSLQSGVPSRFSGSGSGTDFTLTISSLQPEDFATYYCQQSYDPPWTFGGGTKVEIKR: 9.14

Proceed to the following item.
Give its pKd value. Item: B7-H4 antibody 20516 (antibody, human IgG1, kappa, V domains shown, human IgG1/kappa) VH: QVQLQESGPGLVKPSETLSLTCTVSGGSIISYYWGWIRQPPGKGLEWIGYIYSSGSTSYNPSLKSRVTISVDTSKNQFSLKLSSVTAADTAVYYCARGSGLYAAPDYGLDVWGQGTTVTVSS VL: DIQMTQSPSTLSASVGDRVTITCRASQSISSWLAWYQQKPGKAPKLLIYKASSLESGVPSRFSGSGSGTEFTLTISSLQPDDFATYYCQQDNSFPFTFGGGTKVEIKR
7.75
